System: Candida albicans
Assay: Zone developed against Candida albicans, when a 6.0 ug/disc was added
Assay type: functional

{"columns": ["compound structure string", "Zone size / mm"],
 "data": [
  ["C[C@H](NC(=O)CN)C(=O)O.C[C@H](NC(=O)[C@H](C)NC(=O)[C@@H](N)Cc1cccc(F)c1)C(=O)O", 0],
  ["C[C@H](NC(=O)[C@H](C)NC(=O)[C@@H](N)Cc1cccc(F)c1)C(=O)O.NCC(=O)N[C@@H](Cc1ccccc1)C(=O)O", 0],
  ["C[C@H](N)C(=O)N[C@@H](C)C(=O)O.C[C@H](NC(=O)[C@@H](N)Cc1cccc(F)c1)C(=O)O", 0],
  ["C[C@H](NC(=O)[C@@H](N)Cc1cccc(F)c1)C(=O)O.NCC(=O)N[C@@H](Cc1ccccc1)C(=O)O", 0],
  ["C[C@H](N)C(=O)N[C@@H](C)C(=O)N[C@@H](C)C(=O)O.C[C@H](NC(=O)[C@@H](N)Cc1cccc(F)c1)C(=O)O", 0],
  ["C[C@H](NC(=O)CN)C(=O)O.C[C@H](NC(=O)[C@@H](N)Cc1cccc(F)c1)C(=O)O", 0],
  ["C[C@H](N)C(=O)N[C@@H](C)C(=O)O.C[C@H](NC(=O)[C@H](C)NC(=O)[C@@H](N)Cc1cccc(F)c1)C(=O)O", 16],
  ["C[C@H](N)C(=O)N[C@@H](C)C(=O)N[C@@H](C)C(=O)O.C[C@H](NC(=O)[C@H](C)NC(=O)[C@@H](N)Cc1cccc(F)c1)C(=O)O", 0]
]}
